The measured values listed here are drawn from patent US20050090529A1.

- Tested on: Cyclin-dependent kinase
- assay.remarks: Cyclin-dependent kinase inhibition, % inhibition at 10 nM (library Examples 99-270)
- Assay type: biochemical
- run.conditions: 10 nM compound
property: % Inhib @ 10 nM (%)

compound CCNCc1cncc(-c2ccc3[nH]nc(-c4ncc(C(=O)N5C[C@@H]6C[C@H]5CO6)[nH]4)c3c2)c1C [Example 186] , % Inhib @ 10 nM observed: 61

A. CCNCc1cncc(-c2ccc3[nH]nc(-c4ncc(C(=O)NCCCc5c[nH]cn5)[nH]4)c3c2)c1C [Example 189]
B. CCNCc1cncc(-c2ccc3[nH]nc(-c4ncc(C(=O)NCC5CCNCC5)[nH]4)c3c2)c1C [Example 184]
query: # min-compare on % Inhib @ 10 nM between A and B Identify your pick by its label.
result: B
(B: 21%, A: 59%)
